Test system: NCI/ADR-RES ovarian
Test: NCI-60 one-dose screen, 48 h
Conditions: 10 µM unless noted
About 83,000 compounds went through this panel and 20% of them were active in at least one assay; those are over-represented in the sample as a whole. The source made the active and inactive calls. The calls were made as follows: active = growth percent below 10; inactive = the rest.
Give your call using only these classes: yes (active), no (inactive)

compound=Cc1cc2c(-c3nc4ccccc4n3C)c(O)c(O)cc2c(O)c1-c1c(C)cc2c(-c3nc4ccccc4n3C)c(O)c(O)cc2c1O tested_system="NCI/ADR-RES ovarian" assigned_label=no

We next turn to a different compound, shown below.
### Prompt Name the outcome recorded for C=CC1CN2CCC1CC2C(O)c1ccnc2ccc(OC)cc12 (stereo unspecified) in the assay.
### Response no

* * *

Test system: U251 CNS
Assay: NCI-60 one-dose screen, 48 h (100 = growth as untreated, 0 = no growth, -100 = all killed)
Conditions: 10 µM unless noted
Method: Growth inhibition of the U251 human tumor cell line is measured as a screen for anti-cancer activity. Cells are grown in 96 well plates and exposed to the test compound for 48 hours. Compounds are tested at a single concentration, which is 10^-5 M for most compounds. The reported endpoint is percent growth (GI% or GIPRCNT), where numbers from 0 - 100% represent growth inhibition, and numbers from -100% - 0 represent cell death. For example, a value of 40 represents 60% growth inhibition. […]
This is part of a sample that, as a whole, favours compounds with a hit. Of some 83,000 tested, about 20% had one in any assay.
Mark yes only for growth values smaller than 40%; exact matches and larger values are no.

compound=CCCCCCNc1nc(N2CCOCC2)c2[nH]c(NCCCCCC)nc2n1 assigned_label=yes

### Prompt Please let me know if CCCCCCCCCCCCCCCC[n+]1cccc(C#N)c1 shows growth below 40%.
### Response yes

### Prompt How about C/C(=N\Nc1cccc(Cl)n1)c1ccccn1 ?
### Response yes

### Prompt How about COc1cccc(-c2cc(-c3cc4ccccc4oc3=O)nc(N)n2)c1 ?
### Response no

### Prompt How about C=C1CCC2C3(C)COC(c4ccccc4)OC3CCC2(C)C1C/C=C1/C(=O)OCC1O (stereo unspecified) ?
### Response no

### Prompt How about NNC(=S)N1N=C(c2cc3ccccc3o2)CC1c1c[nH]c2ccccc12 (stereo unspecified) ?
### Response yes

* * *

Tested on: OVCAR-4 ovarian
Experiment: NCI-60 one-dose screen, 48 h
Settings: 10 µM unless noted
The panel holds about 83,000 compounds, 20% with a hit somewhere; the sample as a whole holds those more often. The source made the active and inactive calls. How the source made its calls: active means growth percent below 10; inactive means the rest.
Give your call using only these classes: TRUE for active, FALSE for inactive

compound="COc1cc2c(c(OC)c1OC)C(=O)CC(c1cccc(C(=O)Nc3cccc(Br)c3)c1)O2 (stereo not given)" assigned_label=FALSE
compound=COc1cc(OC)cc(-c2ccc(-c3ccc(C(=N)N)cc3)s2)c1 assigned_label=TRUE
compound=CCCNC(=O)Oc1ccc(/C(=C(/C)Cc2ccc(OC)cc2)c2ccc(OCCN3CCCCC3)cc2)cc1 assigned_label=FALSE
compound=N#CCc1ncc(-c2ccc(C(F)(F)F)cc2)c(NC2CCCCCC2)n1 assigned_label=FALSE

### Prompt Name the outcome recorded for COc1cc(NC(=O)CSc2nc3ccc(Cl)cc3c(=O)n2-c2ccc(F)cc2)cc(OC)c1OC in the assay.
### Response FALSE
